- experimental.protocol: Oral bioavailability / pharmacokinetic study (serum magnolol by HPLC)
- Type: in vivo
- test.conditions: male, Sprague-Dawley (SD), rat, po, 100 mg/kg, PO (oral route), 100 mg kg^−1, male SD rats, read-out: Abs T1/2 (absorption half-life)
- Description: The determination of the bioavailability of magnolol and its tissue distribution to the brain, liver, and kidney was done according to the method of Ding et al. (2018), Higashi (2015), Lin et al. (2011), and Kotani et al. (2005). For the pharmacokinetic study, male SD rats were randomly divided into 4 groups (n = 3). […] Samples were reconstituted with acetonitrile prior to HPLC analysis. […] The quantity of magnolol was computed using a standard calibration curve.
property.name: half-life (min)

{"given.smiles": "C=CCc1ccc(O)c(-c2cc(CC=C)ccc2O)c1", "quantitative.result": 23.3}
